Answer each item with its documented Biodistribution Pancreas.
PROTOCOL DESCRIPTION: Biodistribution studies incl. blocking experiments
Format: in vivo
CONDITION LABEL: healthy BALB/c mice, 10 min p.i.
Give bare numbers, in % ID/g.

Some solved cases for reference:
Data request: Would you kindly share the measured Biodistribution Pancreas for O=C(CCP(=O)([O-])CN1CCN(CP(=O)([O-])CCC(=O)NCc2cn([C@@H]3O[C@H](CO)[C@H](O)[C@H](O)[C@H]3O)nn2)CCN(CP(=O)([O-])CCC(=O)NCc2cn([C@@H]3O[C@H](CO)[C@H](O)[C@H](O)[C@H]3O)nn2)CC1)NCc1cn([C@@H]2O[C@H](CO)[C@H](O)[C@H](O)[C@H]2O)nn1.[68Ga+3] [[^68Ga]Ga-Galacto-TRAP] ?
Data returned: 1.20

Data request: Okay, and CC(=O)N[C@H]1[C@H](OCCOCCOCCn2cc(CNC(=O)CCP(=O)([O-])CN3CCN(CP(=O)([O-])CCC(=O)NCc4cn(CCOCCOCCO[C@@H]5O[C@H](CO)[C@H](O)[C@H](O)[C@H]5NC(C)=O)nn4)CCN(CP(=O)([O-])CCC(=O)NCc4cn(CCOCCOCCO[C@@H]5O[C@H](CO)[C@H](O)[C@H](O)[C@H]5NC(C)=O)nn4)CC3)nn2)O[C@H](CO)[C@H](O)[C@@H]1O.[68Ga+3] [[^68Ga]Ga-TRAP-GalNAc] ?
Data returned: 0.92

Data request: Okay, and O=C(CCP(=O)([O-])CN1CCN(CP(=O)([O-])CCC(=O)NCc2cn(CCOCCOCCO[C@@H]3O[C@H](CO)[C@@H](O)[C@H](O)[C@H]3O)nn2)CCN(CP(=O)([O-])CCC(=O)NCc2cn(CCOCCOCCO[C@@H]3O[C@H](CO)[C@@H](O)[C@H](O)[C@H]3O)nn2)CC1)NCc1cn(CCOCCOCCO[C@@H]2O[C@H](CO)[C@@H](O)[C@H](O)[C@H]2O)nn1.[68Ga+3] [[^68Ga]Ga-TRAP-Gluco, reference compound] ?
Data returned: 1.03

Let's switch to this compound now.
Data request: Would you kindly share the measured Biodistribution Pancreas for O=C(CCP(=O)([O-])CN1CCN(CP(=O)([O-])CCC(=O)NCc2cn(CCOCCOCCO[C@@H]3O[C@H](CO)[C@H](O)[C@H](O)[C@H]3O)nn2)CCN(CP(=O)([O-])CCC(=O)NCc2cn(CCOCCOCCO[C@@H]3O[C@H](CO)[C@H](O)[C@H](O)[C@H]3O)nn2)CC1)NCc1cn(CCOCCOCCO[C@@H]2O[C@H](CO)[C@H](O)[C@H](O)[C@H]2O)nn1.[68Ga+3] [[^68Ga]Ga-TRAP-Galactan] ?
Data returned: 0.87

###

Answer each item with its documented Biodistribution Lung.
PROTOCOL DESCRIPTION: Biodistribution studies incl. blocking experiments
Format: in vivo
CONDITION LABEL: healthy BALB/c mice, 30 min p.i.
One number for each entry, in % ID/g.

Data request: Would you kindly share the measured Biodistribution Lung for O=C(O)CN1CCN(CC(=O)O)CCN([C@H](CCC(=O)NCCCC(=O)NC(COCc2cn(CCOCCOCCO[C@@H]3O[C@H](CO)[C@H](O)[C@H](O)[C@H]3O)nn2)(COCc2cn(CCOCCOCCO[C@@H]3O[C@H](CO)[C@H](O)[C@H](O)[C@H]3O)nn2)COCc2cn(CCOCCOCCO[C@@H]3O[C@H](CO)[C@H](O)[C@H](O)[C@H]3O)nn2)C(=O)O)CC1 [[^68Ga]Ga-NODAGA-TriGalactan, metal not drawn] ?
Data returned: 0.74

Data request: Okay, and O=C(CCP(=O)([O-])CN1CCN(CP(=O)([O-])CCC(=O)NCc2cn([C@@H]3O[C@H](CO)[C@H](O)[C@H](O)[C@H]3O)nn2)CCN(CP(=O)([O-])CCC(=O)NCc2cn([C@@H]3O[C@H](CO)[C@H](O)[C@H](O)[C@H]3O)nn2)CC1)NCc1cn([C@@H]2O[C@H](CO)[C@H](O)[C@H](O)[C@H]2O)nn1.[68Ga+3] [[^68Ga]Ga-Galacto-TRAP] ?
Data returned: 0.75

Data request: Okay, and O=C(CCP(=O)([O-])CN1CCN(CP(=O)([O-])CCC(=O)NCc2cn(CCOCCOCCO[C@@H]3O[C@H](CO)[C@@H](O)[C@H](O)[C@H]3O)nn2)CCN(CP(=O)([O-])CCC(=O)NCc2cn(CCOCCOCCO[C@@H]3O[C@H](CO)[C@@H](O)[C@H](O)[C@H]3O)nn2)CC1)NCc1cn(CCOCCOCCO[C@@H]2O[C@H](CO)[C@@H](O)[C@H](O)[C@H]2O)nn1.[68Ga+3] [[^68Ga]Ga-TRAP-Gluco, reference compound] ?
Data returned: 0.32

Data request: Okay, and O=C(CCP(=O)([O-])CN1CCN(CP(=O)([O-])CCC(=O)NCc2cn(CCOCCOCCO[C@@H]3O[C@H](CO)[C@H](O)[C@H](O)[C@H]3O)nn2)CCN(CP(=O)([O-])CCC(=O)NCc2cn(CCOCCOCCO[C@@H]3O[C@H](CO)[C@H](O)[C@H](O)[C@H]3O)nn2)CC1)NCc1cn(CCOCCOCCO[C@@H]2O[C@H](CO)[C@H](O)[C@H](O)[C@H]2O)nn1.[68Ga+3] [[^68Ga]Ga-TRAP-Galactan] ?
Data returned: 1.09

Let's switch to this molecule now.
Data request: Would you kindly share the measured Biodistribution Lung for CC(=O)N[C@H]1[C@H](OCCOCCOCCn2cc(CNC(=O)CCP(=O)([O-])CN3CCN(CP(=O)([O-])CCC(=O)NCc4cn(CCOCCOCCO[C@@H]5O[C@H](CO)[C@H](O)[C@H](O)[C@H]5NC(C)=O)nn4)CCN(CP(=O)([O-])CCC(=O)NCc4cn(CCOCCOCCO[C@@H]5O[C@H](CO)[C@H](O)[C@H](O)[C@H]5NC(C)=O)nn4)CC3)nn2)O[C@H](CO)[C@H](O)[C@@H]1O.[68Ga+3] [[^68Ga]Ga-TRAP-GalNAc] ?
Data returned: 1.02

###

PROTOCOL DESCRIPTION: Biodistribution studies incl. blocking experiments
Type: in vivo
CONDITION LABEL: healthy BALB/c mice, 30 min p.i.
RECORDED ENDPOINT: Biodistribution Femur (% ID/g)
Numbers only, in % ID/g.

Data request: Would you kindly share the measured Biodistribution Femur for O=C(O)CN1CCN(CC(=O)O)CCN([C@H](CCC(=O)NCCCC(=O)NC(COCc2cn(CCOCCOCCO[C@@H]3O[C@H](CO)[C@H](O)[C@H](O)[C@H]3O)nn2)(COCc2cn(CCOCCOCCO[C@@H]3O[C@H](CO)[C@H](O)[C@H](O)[C@H]3O)nn2)COCc2cn(CCOCCOCCO[C@@H]3O[C@H](CO)[C@H](O)[C@H](O)[C@H]3O)nn2)C(=O)O)CC1 [[^68Ga]Ga-NODAGA-TriGalactan, metal not drawn] ?
Data returned: 0.22

###

PROTOCOL DESCRIPTION: Biodistribution studies incl. blocking experiments
Format: in vivo
CONDITION LABEL: healthy BALB/c mice, 60 min p.i.
Experimental: For biodistribution studies 6 week old female BALB/c mice (n=3) were injected with 0.1 nmol (100 μL, approx. 1 MBq) of labelled compound via the lateral tail vein and sacrificed after 10, 30, or 60 min by cervical dislocation. The mice were dissected, blood and organs (spleen, pancreas, stomach, intestine, liver, kidney, heart, lung, muscle, and bone) were weighed, and their activity measured in a γ-counter. […]
RECORDED ENDPOINT: Biodistribution Muscle (% ID/g)
Numbers only, in % ID/g.

Data request: Would you kindly share the measured Biodistribution Muscle for O=C(O)CN1CCN(CC(=O)O)CCN([C@H](CCC(=O)NCCCC(=O)NC(COCc2cn(CCOCCOCCO[C@@H]3O[C@H](CO)[C@H](O)[C@H](O)[C@H]3O)nn2)(COCc2cn(CCOCCOCCO[C@@H]3O[C@H](CO)[C@H](O)[C@H](O)[C@H]3O)nn2)COCc2cn(CCOCCOCCO[C@@H]3O[C@H](CO)[C@H](O)[C@H](O)[C@H]3O)nn2)C(=O)O)CC1 [[^68Ga]Ga-NODAGA-TriGalactan, metal not drawn] ?
Data returned: 0.17

###

PROTOCOL DESCRIPTION: Biodistribution studies incl. blocking experiments
Assay type: in vivo
CONDITION LABEL: healthy BALB/c mice, 30 min p.i.
Biodistribution Heart vs 0.7 % ID/g: at or above is 1, below is -1.

Data request: For this compound, is measured Biodistribution Heart 0.7 % ID/g or higher? CC(=O)N[C@H]1[C@H](OCCOCCOCCn2cc(CNC(=O)CCP(=O)([O-])CN3CCN(CP(=O)([O-])CCC(=O)NCc4cn(CCOCCOCCO[C@@H]5O[C@H](CO)[C@H](O)[C@H](O)[C@H]5NC(C)=O)nn4)CCN(CP(=O)([O-])CCC(=O)NCc4cn(CCOCCOCCO[C@@H]5O[C@H](CO)[C@H](O)[C@H](O)[C@H]5NC(C)=O)nn4)CC3)nn2)O[C@H](CO)[C@H](O)[C@@H]1O.[68Ga+3] [[^68Ga]Ga-TRAP-GalNAc]
Data returned: 1

Data request: Okay, and O=C(CCP(=O)([O-])CN1CCN(CP(=O)([O-])CCC(=O)NCc2cn([C@@H]3O[C@H](CO)[C@H](O)[C@H](O)[C@H]3O)nn2)CCN(CP(=O)([O-])CCC(=O)NCc2cn([C@@H]3O[C@H](CO)[C@H](O)[C@H](O)[C@H]3O)nn2)CC1)NCc1cn([C@@H]2O[C@H](CO)[C@H](O)[C@H](O)[C@H]2O)nn1.[68Ga+3] [[^68Ga]Ga-Galacto-TRAP] ?
Data returned: 1

Data request: Okay, and O=C(CCP(=O)([O-])CN1CCN(CP(=O)([O-])CCC(=O)NCc2cn(CCOCCOCCO[C@@H]3O[C@H](CO)[C@H](O)[C@H](O)[C@H]3O)nn2)CCN(CP(=O)([O-])CCC(=O)NCc2cn(CCOCCOCCO[C@@H]3O[C@H](CO)[C@H](O)[C@H](O)[C@H]3O)nn2)CC1)NCc1cn(CCOCCOCCO[C@@H]2O[C@H](CO)[C@H](O)[C@H](O)[C@H]2O)nn1.[68Ga+3] [[^68Ga]Ga-TRAP-Galactan] ?
Data returned: -1

Data request: Okay, and O=C(CCP(=O)([O-])CN1CCN(CP(=O)([O-])CCC(=O)NCc2cn(CCOCCOCCO[C@@H]3O[C@H](CO)[C@@H](O)[C@H](O)[C@H]3O)nn2)CCN(CP(=O)([O-])CCC(=O)NCc2cn(CCOCCOCCO[C@@H]3O[C@H](CO)[C@@H](O)[C@H](O)[C@H]3O)nn2)CC1)NCc1cn(CCOCCOCCO[C@@H]2O[C@H](CO)[C@@H](O)[C@H](O)[C@H]2O)nn1.[68Ga+3] [[^68Ga]Ga-TRAP-Gluco, reference compound] ?
Data returned: 1

Consider now this further compound.
Data request: For this compound, is measured Biodistribution Heart 0.7 % ID/g or higher? O=C(O)CN1CCN(CC(=O)O)CCN([C@H](CCC(=O)NCCCC(=O)NC(COCc2cn(CCOCCOCCO[C@@H]3O[C@H](CO)[C@H](O)[C@H](O)[C@H]3O)nn2)(COCc2cn(CCOCCOCCO[C@@H]3O[C@H](CO)[C@H](O)[C@H](O)[C@H]3O)nn2)COCc2cn(CCOCCOCCO[C@@H]3O[C@H](CO)[C@H](O)[C@H](O)[C@H]3O)nn2)C(=O)O)CC1 [[^68Ga]Ga-NODAGA-TriGalactan, metal not drawn]
Data returned: -1
